Molecular target: Cef-68
Assay: Competitive indirect ELISA (ciELISA), competitor inhibition of MAb Cef-68 binding
Design: species or system Balb/c mice
Conditions: MAb Cef-68, final dilution 1:20; BSA-S-GMBS-Cef-coated plates; value ± standard deviation, average of 3-6 determinations
Reported IC50 (ppb) Values for Antibodies, Cef-68 values for a set of molecules
Test readout: IC50 (ppb) Values for Antibodies, Cef-68

Item smiles: CO/N=C(\C(=O)N[C@@H]1C(=O)N2C(C(=O)O)=C(COC(C)=O)CS[C@H]12)c1csc(N)n1
Experimental target: Cef-68
Meas value: 79.67
--
Item smiles: CO/N=C(\C(=O)N[C@@H]1C(=O)N2C(C(=O)O)=C(Cn3nnc(C)n3)CS[C@H]12)c1csc(N)n1
Experimental target: Cef-68
Meas value: 200.00
--
Item smiles: CO/N=C(\C(=O)N[C@@H]1C(=O)N2C(C(=O)O)=C(CSc3nc(=O)c(=O)[nH]n3C)CS[C@H]12)c1csc(N)n1
Experimental target: Cef-68
Meas value: 38.67
--
Item smiles: CO/N=C(\C(=O)N[C@@H]1C(=O)N2C(C(=O)O)=C(CSC(=O)c3ccco3)CS[C@H]12)c1csc(N)n1
Experimental target: Cef-68
Meas value: 32.33
